Test system: surinam grass
Assay: Test B pre/postemergence surinam grass
Format: in vivo, Brachiaria decumbens
Conditions: Preemergence, Rate 125 g/ha; 0 is no effect, 10 is complete control
Procedure: […] At the same time, these crop and weed species were also treated with postemergence applications of test chemicals formulated in the same manner. […] Treated plants and controls were maintained in a greenhouse for twelve to sixteen days, after which all species were compared to controls and visually evaluated. […]
Listed below: B. signalgrass plant response rating (0 to 10 scale) values for each entry.
Measurement Type: B. signalgrass plant response rating (0 to 10 scale)

Molecule | Numeric Readout
CC(C)N(C(=O)n1oc(=O)n(C)c1=O)c1ccc(Cl)cc1 | 5
CCN(C(=O)n1oc(=O)n(N(C)c2ccccc2)c1=O)C1CCCCC1 | 0
CC(C)N(C(=O)n1oc(=O)[nH]c1=O)c1ccc(F)cc1 | 0
COc1ccccc1Cn1c(=O)on(C(=O)N(c2ccc(F)cc2)C(C)C)c1=O | 0
CN(C(=O)n1oc(=O)n(Cc2ccccc2)c1=O)c1ccccc1 | 0
CCN(C(=O)n1oc(=O)n(C(C)C)c1=O)c1nncs1 | 0
